All figures here come from ChEMBL document CHEMBL1158339.

MIC values by entry
tested on: Bacillus cereus; experiment: Antibacterial activity against Bacillus cereus ATCC 11778 after 24 hrs by agar streak dilution method; type: functional; conditions: ATCC 11778, 24 h
Lab book: enter the figure in µg/mL, no units written.

[[record]]
chem_smiles = "O=c1c2cc(Br)cc(Br)c2nc(-c2ccccc2)n1/N=C/c1cccc([N+](=O)[O-])c1"
endpoint_name = "MIC"
number = 23.6

[[record]]
chem_smiles = "O=c1c2cc(Br)cc(Br)c2nc(-c2ccccc2)n1/N=C/c1ccc([N+](=O)[O-])cc1"
endpoint_name = "MIC"
number = 32.8


Proceed to the following item.
Task: Give MIC (Bacillus cereus) of the following molecule: O=c1c2cc(Br)cc(Br)c2nc(-c2ccccc2)n1/N=C/c1ccc(Cl)cc1
Result: 36.1

###

test system: Aspergillus niger; test: Antifungal activity against Aspergillus niger ATCC 9029 after 48 hrs by agar streak dilution method; format: functional; conditions: ATCC 9029, 48 h
ENDPOINT NAME: MIC (µg/mL)
Lab book: enter the figure in µg/mL, no units written.

// worked examples, MIC included
[[record]]
molecule = "O=c1c2cc(Br)cc(Br)c2nc(-c2ccccc2)n1/N=C/C=C/c1ccccc1"
number = 11.8

[[record]]
molecule = "O=c1c2cc(Br)cc(Br)c2nc(-c2ccccc2)n1/N=C/c1ccccc1O"
number = 12.2

[[record]]
molecule = "O=c1c2cc(Br)cc(Br)c2nc(-c2ccccc2)n1/N=C/c1ccc(O)cc1"
number = 9.1


Proceed to the following item.
Task: Value lookup for MIC; key = CC(=O)N1CCN(c2ccc(OCC3COC(Cn4ccnc4)(c4ccc(Cl)cc4Cl)O3)cc2)CC1 (centres undefined)
Result: 6.1

###

inhibition zone (IZ) values by entry
tested on: Escherichia coli; test: Antibacterial activity against Escherichia coli ATCC 25922 after 24 hrs by paper disk diffusion technique; assay type: functional; also: test concentration or dose not given here
Note to self: number, then unit, no commentary.

[[record]]
chem_smiles = "COc1cc(/C=N/n2c(-c3ccccc3)nc3c(Br)cc(Br)cc3c2=O)cc(OC)c1OC"
endpoint_name = "inhibition zone (IZ)"
result = "27 mm"

[[record]]
chem_smiles = "O=c1c2cc(Br)cc(Br)c2nc(-c2ccccc2)n1/N=C/c1ccc(Cl)cc1"
endpoint_name = "inhibition zone (IZ)"
result = "27 mm"


Proceed to the following item.
Task: Value lookup for inhibition zone (IZ); key = O=c1c2cc(Br)cc(Br)c2nc(-c2ccccc2)n1/N=C/c1ccc(O)cc1
Result: 23 mm

###

system: Aspergillus niger; test: Antifungal activity against Aspergillus niger ATCC 9029 after 48 hrs by agar streak dilution method; type: functional; settings: ATCC 9029, 48 h
MIC values by entry
Lab book: enter the figure in µg/mL, no units written.

// worked examples, MIC included
[[record]]
chem_smiles = "CN(C)c1ccc(/C=N/n2c(-c3ccccc3)nc3c(Br)cc(Br)cc3c2=O)cc1"
endpoint_name = "MIC"
number = 14.7

[[record]]
chem_smiles = "Cc1ccc(/C=N/n2c(-c3ccccc3)nc3c(Br)cc(Br)cc3c2=O)cc1"
endpoint_name = "MIC"
number = 15.2

[[record]]
chem_smiles = "O=c1c2cc(Br)cc(Br)c2nc(-c2ccccc2)n1/N=C/c1ccc(Cl)cc1"
endpoint_name = "MIC"
number = 10.2


Task: Value lookup for MIC; key = O=c1c2cc(Br)cc(Br)c2nc(-c2ccccc2)n1/N=C/c1cccc([N+](=O)[O-])c1
Result: 10.7

Task: Let us now turn to COc1cc(/C=N/n2c(-c3ccccc3)nc3c(Br)cc(Br)cc3c2=O)cc(OC)c1OC
Result: 8.6

###

inhibition zone (IZ) values by entry
tested on: Staphylococcus epidermidis; test: Antibacterial activity against Staphylococcus epidermidis ATCC 155 after 24 hrs by paper disk diffusion technique; format: functional; also: test concentration or dose not given here
Lab book: enter the figure in mm, no units written.

// worked examples, inhibition zone (IZ) included
[[record]]
chem_smiles = "O=c1c2cc(Br)cc(Br)c2nc(-c2ccccc2)n1/N=C/c1ccc(O)cc1"
test_system = "Staphylococcus epidermidis"
unit_of_measure = "mm"
number = 22

[[record]]
chem_smiles = "O=c1c2cc(Br)cc(Br)c2nc(-c2ccccc2)n1/N=C/c1ccc(Cl)cc1"
test_system = "Staphylococcus epidermidis"
unit_of_measure = "mm"
number = 20


Task: Value lookup for inhibition zone (IZ); key = O=c1c2cc(Br)cc(Br)c2nc(-c2ccccc2)n1/N=C/C=C/c1ccccc1
Result: 24

###

tested on: Aspergillus fumigatus; test: Antifungal activity against Aspergillus fumigatus ATCC 46645 after 48 hrs by paper disk diffusion technique; format: functional
ENDPOINT NAME: inhibition zone (IZ) (mm)
Lab book: enter the figure in mm, no units written.

// worked examples, inhibition zone (IZ) included
[[record]]
chem_smiles = "COc1cc(/C=N/n2c(-c3ccccc3)nc3c(Br)cc(Br)cc3c2=O)cc(OC)c1OC"
endpoint_name = "inhibition zone (IZ)"
number = 24

[[record]]
chem_smiles = "O=c1c2cc(Br)cc(Br)c2nc(-c2ccccc2)n1/N=C/c1ccc(O)cc1"
endpoint_name = "inhibition zone (IZ)"
number = 21


Proceed to the following item.
Task: Value lookup for inhibition zone (IZ); key = O=c1c2cc(Br)cc(Br)c2nc(-c2ccccc2)n1/N=C/c1ccccc1
Result: 22

###

test system: Aspergillus fumigatus; test: Antifungal activity against Aspergillus fumigatus ATCC 46645 after 48 hrs by paper disk diffusion technique; format: functional
ENDPOINT NAME: inhibition zone (IZ) (mm)
Lab book: enter the figure in mm, no units written.

// worked examples, inhibition zone (IZ) included
[[record]]
chem_smiles = "O=c1c2cc(Br)cc(Br)c2nc(-c2ccccc2)n1/N=C/c1ccc(Cl)cc1"
number = 22

[[record]]
chem_smiles = "Cc1ccc(/C=N/n2c(-c3ccccc3)nc3c(Br)cc(Br)cc3c2=O)cc1"
number = 24

[[record]]
chem_smiles = "COc1cc(/C=N/n2c(-c3ccccc3)nc3c(Br)cc(Br)cc3c2=O)ccc1O"
number = 23


Task: Value lookup for inhibition zone (IZ); key = CN(C)c1ccc(/C=N/n2c(-c3ccccc3)nc3c(Br)cc(Br)cc3c2=O)cc1
Result: 22

Task: Let us now turn to O=c1c2cc(Br)cc(Br)c2nc(-c2ccccc2)n1/N=C/c1ccc([N+](=O)[O-])cc1
Result: 25

Task: Let us now turn to O=c1c2cc(Br)cc(Br)c2nc(-c2ccccc2)n1/N=C/c1cccc([N+](=O)[O-])c1
Result: 23

Task: Let us now turn to O=c1c2cc(Br)cc(Br)c2nc(-c2ccccc2)n1/N=C/C=C/c1ccccc1
Result: 22

Task: Let us now turn to O=c1c2cc(Br)cc(Br)c2nc(-c2ccccc2)n1/N=C/c1ccccc1O
Result: 23

Task: Let us now turn to COc1ccc(/C=N/n2c(-c3ccccc3)nc3c(Br)cc(Br)cc3c2=O)cc1
Result: 24

###

system: Bacillus cereus; experiment: Antibacterial activity against Bacillus cereus ATCC 11778 after 24 hrs by paper disk diffusion technique; type: functional; also: test concentration or dose not given here
Lab note: anything with inhibition zone (IZ) at or over 20 mm counts as true; the rest go in false.

[[record]]
chem_smiles = "Cc1ccc(/C=N/n2c(-c3ccccc3)nc3c(Br)cc(Br)cc3c2=O)cc1"
class_name = "true"

[[record]]
chem_smiles = "COc1cc(/C=N/n2c(-c3ccccc3)nc3c(Br)cc(Br)cc3c2=O)ccc1O"
class_name = "false"


Task: Assess whether reported inhibition zone (IZ) for CN(C)c1ccc(/C=N/n2c(-c3ccccc3)nc3c(Br)cc(Br)cc3c2=O)cc1 sits at 20 mm or higher.
Result: false

Task: Let us now turn to O=c1c2cc(Br)cc(Br)c2nc(-c2ccccc2)n1/N=C/c1cccc([N+](=O)[O-])c1
Result: true

Task: Let us now turn to O=c1c2cc(Br)cc(Br)c2nc(-c2ccccc2)n1/N=C/C=C/c1ccccc1
Result: true

###

system: Klebsiella pneumoniae; test: Antibacterial activity against Klebsiella pneumoniae ATCC 11298 after 24 hrs by paper disk diffusion technique; assay type: functional; also: test concentration or dose not given here
inhibition zone (IZ) values by entry
Lab book: enter the figure in mm, no units written.

// worked examples, inhibition zone (IZ) included
[[record]]
chem_smiles = "COc1ccc(/C=N/n2c(-c3ccccc3)nc3c(Br)cc(Br)cc3c2=O)cc1"
number = 20

[[record]]
chem_smiles = "CN(C)c1ccc(/C=N/n2c(-c3ccccc3)nc3c(Br)cc(Br)cc3c2=O)cc1"
number = 23

[[record]]
chem_smiles = "COc1cc(/C=N/n2c(-c3ccccc3)nc3c(Br)cc(Br)cc3c2=O)cc(OC)c1OC"
number = 28

[[record]]
chem_smiles = "O=c1c2cc(Br)cc(Br)c2nc(-c2ccccc2)n1/N=C/c1ccc(Cl)cc1"
number = 25

[[record]]
chem_smiles = "O=c1c2cc(Br)cc(Br)c2nc(-c2ccccc2)n1/N=C/c1ccccc1"
number = 21


Task: Give inhibition zone (IZ) (Klebsiella pneumoniae) of the following compound: COc1cc(/C=N/n2c(-c3ccccc3)nc3c(Br)cc(Br)cc3c2=O)ccc1O
Result: 23

Task: Let us now turn to O=c1c2cc(Br)cc(Br)c2nc(-c2ccccc2)n1/N=C/c1ccc([N+](=O)[O-])cc1
Result: 20
